Reported MIC values for a set of compounds
System: Bacillus subtilis
Test: Antibacterial activity against Bacillus subtilis 1064 by CLSI based susceptibility test method
Type: functional

Known results for compounds:
C[S+](C)[O-] [DIMETHYL SULFOXIDE] :: > 64 µg/mL
COC(=O)Nc1coc(C(=O)Nc2coc(C(=O)NCCCCCNC(=O)c3cc(NC(=O)c4cc(NC(=O)OC)co4)co3)c2)c1 :: > 64 µg/mL

Prompt: Input `COC(=O)Nc1coc(C(=O)Nc2coc(C(=O)NCCc3c[nH]c4ccccc34)c2)c1` , output reported MIC.
Completion: > 64 µg/mL
